Provide the reported cytotoxicity at 70.5 h of each item.
# EXPERIMENTAL PROTOCOL: Human HepG2 cell viability assay in 384 well format
# Type: toxicity, cell-based
# Set-up: dose 125 nL, time 70.5 hour; concentration not given beside the values
# CONDITION NOTES: HepG2 cells, read-out: Inhibition
Numbers only, in %.

Recorded results for 10 molecules are shown here.
CCC(CNC(=O)Nc1cnn(CC)c1)N1CCc2ccccc2C1 (centres undefined) ... -4.26
CC(C)c1cc(C(=O)N2CCCC(c3cc(=O)nc4n3CCC4)C2)no1 (centres undefined) ... -11.3
CCc1nc(CNC(C)Cn2cccn2)cs1 (centres undefined) ... -11.9
Cc1cccc(C)c1OCCCN1CCC(n2cncn2)CC1 ... 3.77
O=C(Nc1cccc(CNCc2ccccn2)c1)C1CCCC1 ... -4.03
CC(C)(NC(=O)c1cnc(-c2ccccc2F)s1)C(N)=O ... -10.3
O=C(CSc1nc2c(cnn2CCO)c(=O)[nH]1)N1CCCCCC1 ... 13.2
Cc1ccc([C@@H]2CN(S(=O)(=O)c3cccs3)C[C@H]2N(C)C)cc1 ... -2.64
C=C/C=c1\c(=C/C)oc2c(NCc3ccccc3)nc(CC)nc12 ... 11.2
Cc1nn(C)cc1-c1cc(C(=O)NCC(C)(C)c2cccc(F)c2)n[nH]1 ... 1.66

Go through the list and state cytotoxicity at 70.5 h for each entry.
1. CC(C)NC(=O)NCc1cc(-c2ccco2)n(CC(F)(F)F)n1
2. O=C(c1ccc(-c2ccc(O)nc2)s1)N1CCCCC1
3. CC(C)c1nnc2n1CCN(C(=O)c1ccnc(-n3ccnc3)c1)C2
4. COc1ccccc1C(=O)N1CC(=O)N(CC2CC2)CC(O)C1 (centres undefined)
5. CCc1nc(CN2CCCC(Nc3ncnc4ccsc34)C2)no1 (centres undefined)

Result:
-5.8
-8.32
19.7
-0.352
-8.27

Go through the list and state cytotoxicity at 70.5 h for each entry.
1. O=C([C@@H]1COC[C@H]2CN(C3CCOCC3)C[C@H]21)N1CCCCO1
2. CN1CCN(C2CCCC2)C(CCO)C1 (centres undefined)
3. CCC1=NN2C(=N)/C(=C\c3cccn3-c3ccc(Br)cc3)C(=O)N=C2S1
4. Clc1cccc2c3c([nH]c12)CCN(Cc1cc2n(n1)CCCNC2)C3
5. NC(=O)c1noc(Cn2ncc3ccccc3c2=O)n1
6. CN(CC1CCOCC1)C(C(=O)O)c1cccc(F)c1F (centres undefined)
7. CCc1nnc2n1CCN(C(=O)c1ccc3nc(C)c(C)nc3c1)C2

Result:
18.7
-1.81
3.19
35.7
12.9
0.34
1.25

Go through the list and state cytotoxicity at 70.5 h for each entry.
1. O=C(CCN1CCCO1)N1CC[C@@H](c2ccc3ccccc3c2)[C@H](O)C1
2. CC(c1ccc(-c2cnc(N)nc2)cc1)N1CCOCC1 (centres undefined)
3. O=C(NCCN1CCOC1=O)c1ccc2sccc2c1

Result:
[0.165, -3.76, -4.67]

###

# EXPERIMENTAL PROTOCOL: Human HepG2 cell viability assay in 384 well format
# Format: toxicity, cell-based
# Set-up: dose 125 nL, time 70.5 hour; concentration not given beside the values
# CONDITION NOTES: HepG2 cells, read-out: Inhibition
REPORTED ENDPOINT: cytotoxicity at 70.5 h (%)
Give bare numbers, in %.

Recorded results for 5 compounds are shown here.
CS(=O)(=O)N[C@@H]1CCN(Cc2ccncc2)[C@H]1Cc1cccnc1 ... -12.8
Cn1cc(-c2nnn3c2COC(CNCc2cccnc2)C3)cn1 (stereo not drawn) ... 18.5
CC1CCCN(c2ncc(C(=O)NCc3ccc(F)c(Cl)c3)c(N)n2)C1 (stereo not drawn) ... 19.8
CCC1=N[C@@]2(CC[C@@H]3CN(S(=O)(=O)CC)C[C@@H]32)C(=O)N1CC(C)C ... -1.65
COc1ccccc1C1Cn2ccnc2CN1Cc1c[nH]nc1C (stereo not drawn) ... -1.22

Go through the list and state cytotoxicity at 70.5 h for each entry.
1. CO[C@H]1CCN(S(=O)(=O)c2cn(C)cn2)[C@H]1Cc1cnn(C)c1
2. CC(c1ccco1)N(C(=O)Cn1nc2n(c1=O)CCCCC2)C1CC1 (stereo not drawn)
3. CC(C)c1cc(N2CCC(N(C)C)C2)n2nccc2n1 (stereo not drawn)
4. CN1CCCC1CCn1ccnc1-c1ccc2ccccc2n1 (stereo not drawn)
5. COc1cc(CNc2ccc(Cl)cc2)ccc1OCC(=O)O
6. CSc1ccc(CN2C[C@@H]3CC[C@@](O)(c4ccc(C)cn4)[C@@H]3C2)cc1

Result:
-14.3
18
-8.85
1.35
-19.8
41.8

Go through the list and state cytotoxicity at 70.5 h for each entry.
1. O=C(NC1CCN(Cc2cccc3c2OCCO3)CC1)c1cccs1
2. NC(=O)C1CCN(C(=O)NCc2cccnc2OCC(F)(F)F)C1 (stereo not drawn)
3. CN(Cc1ccncn1)c1nccc(CCC(F)(F)F)n1
4. CCn1nc(C)cc1S(=O)(=O)N1CCC2(CCCN(C(C)C)C2=O)C1 (stereo not drawn)
5. CCc1nc2c(N3CCCC(c4nccn4CCOC)C3)ncnc2o1 (stereo not drawn)
6. O=C(c1sccc1C1CC1)N1CCCN(c2cccnn2)CC1

Result:
0.406
-1.73
23
-1.6
26.1
-7.16

###

# EXPERIMENTAL PROTOCOL: Human HepG2 cell viability assay in 384 well format
# Assay type: toxicity, cell-based
# Parameters: dose 125 nL, time 70.5 hour; concentration not given beside the values
# CONDITION NOTES: HepG2 cells, read-out: Inhibition
REPORTED ENDPOINT: cytotoxicity at 70.5 h (%)
One number for each entry, in %.

O=C(Nc1cc(C(F)(F)F)c[nH]c1=O)C1CCCO1 (configuration not stated) ... -7.79
COc1ccccc1-n1nc(-c2ccco2)n(CC(=O)NC(C)C)c1=O ... -6.38
O=C(O)c1cccc(N2CCC(Oc3cccc(F)c3)CC2)n1 ... -7
O=C1[C@@H]2CN(c3ncc(Cl)cc3F)C[C@]2(C(=O)O)CN1CC1CC1 ... -5.98
Cc1cc(C2CCC2)nc(N2CCC3(CCCNC3=O)C2)n1 (configuration not stated) ... -18.8
CCN1CCN(Cc2c(C3CCCC3)[nH]c3ncccc23)CC1 ... -6.15

Now consider a different compound.
Request: Return reported cytotoxicity at 70.5 h; argument: CC(CO)NCc1csc2c1CCCC2 (configuration not stated)
Result: 0.572

###

# EXPERIMENTAL PROTOCOL: Human HepG2 cell viability assay in 384 well format
# Type: toxicity, cell-based
# Design: dose 125 nL, time 70.5 hour; concentration not given beside the values
# CONDITION NOTES: HepG2 cells, read-out: Inhibition
Provide the reported cytotoxicity at 70.5 h of each item.

Go through the list and state cytotoxicity at 70.5 h for each entry.
1. Cc1nn(CC(=O)N2CCN(c3ncccn3)CC2)c(C)c1Cl
2. CN(C)C(=O)COC[C@@H]1CC[C@H]2[C@H](CCN2c2ncccn2)O1
3. COCCn1ccnc1CN1CCc2[nH]cnc2C1c1cnn(C)c1C (stereo not given)

Result:
["21.2%", "-66.5%", "-13.2%"]

Go through the list and state cytotoxicity at 70.5 h for each entry.
1. CN1CCC(N[C@@H]2CO[C@H](CNC(=O)Nc3ccccc3)[C@H]2O)CC1
2. O=C(CCn1cnc2ccccc21)N1CCN2CCCCC2C1 (stereo not given)
3. Cc1noc(C)c1CNC(=O)Nc1ccc(N2CCSCC2)cc1
4. CCn1cc(NC(=O)NCCN2CCCc3ccccc32)cn1

Result:
1: -2.44%; 2: 27.2%; 3: -9.93%; 4: 0.821%

Go through the list and state cytotoxicity at 70.5 h for each entry.
1. Cc1cc(NC(=O)CN2CCCC2c2noc(C(C)C)n2)on1 (stereo not given)
2. CCC1CN(CC(=O)NCCN(CC)CC)c2ccccc2S1 (stereo not given)
3. Cc1noc(CCCC(=O)NC(C)c2ccccn2)n1 (stereo not given)
4. CN1CCN(Cc2ccco2)Cc2cccnc21
5. COc1ccc(C(C(=O)O)N2CCN(C3CCCCC3)CC2)cc1OC (stereo not given)
6. CC(C)c1nnc(NC(=O)NC2CCN(Cc3ccccc3)C2)s1 (stereo not given)
7. CSc1nc(C2CC2)nc(C)c1C(=O)NCc1cc(C)on1
8. CCN(CC)C(=O)Cn1ccc2cc(NC(=O)NC3CC3)ccc21

Result:
-14.1%
-6.69%
-0.329%
0%
13.6%
-2.21%
-0.104%
-3.42%

Go through the list and state cytotoxicity at 70.5 h for each entry.
1. Cc1cc(C(=O)N(C)C)nc(C2(C)CCCN2c2ccccc2)n1 (stereo not given)
2. CC(C)N(C)C(=O)c1ccc(Cl)c(NC(=O)COCC2CC2)c1
3. CCS(=O)(=O)N1CC[C@@H]2[C@H]1CCC(=O)N2CCOC
4. Cc1cc(NCc2cc(C)oc2C(F)(F)F)n2nc(C)cc2n1
5. CCN(CC)C(=O)COc1ccnc2cc(OC)ccc12
6. Cc1ccc2c(c1)C(=O)CC1(CCN(Cc3ccccc3)CC1)O2
7. Cn1cc(S(=O)(=O)N2CCN(S(=O)(=O)c3ccc(Br)s3)CC2)cn1
8. CCN(CC)C(CNC(=O)c1ccc(S(=O)(=O)NC)cc1)c1ccco1 (stereo not given)

Result:
["-2.68%", "-6.46%", "-3.05%", "-2.81%", "-19.4%", "-2.96%", "-8.9%", "0.103%"]
